- targetUnderTest: Dual specificity protein kinase CLK4 (Homo sapiens)
- assayNotes: qHTS Assay for Inhibitors of CDC-like Kinase 4 (Kinase-Glo Assay) (AID 1770); note: nearly all actives have a fitted effect of over 65% in size
- conditions: recombinant Clk4, Kinase-Glo ATP depletion luminescence; series mostly up to 66.7 µM
Inconclusive results are not listed. The source made the active and inactive calls. Calls come from the whole dose curve; as a rule, active = well fitted inhibition curve with a large enough effect; inconclusive = small, poorly fitted or top-dose-only effect; inactive = flat fitted curve, though single readings scatter.
Give one outcome, nothing more. List: 1 = active, 0 = inactive

Reference set, count: 3
smilesText: CN1CCN(c2ncc3nc(-c4ccccc4)c(=O)n(Cc4cccs4)c3n2)CC1
group: 0
//
smilesText: CCNc1ncc2nc(C)c(=O)n(CCc3ccccc3)c2n1
group: 1
//
smilesText: CCNc1ncc2nc(-c3ccc(OC)cc3)c(=O)n(C)c2n1
group: 0

Short answer needed: outcome of this test for COCCn1c(=O)c(-c2cc(F)cc(F)c2)nc2cnc(N3CCN(C)CC3)nc21 ?
0

# iterate: Cc1nc2cnc(OCc3ccccc3)nc2n(CCc2ccccc2)c1=O
0

# iterate: N#Cc1cccc(-c2ccc3ncnc(NCc4cccs4)c3c2)c1
1
